biological target: T1, human EGFRvIII-hFc protein (human, UniProt P00533 25-645); test: ELISA, coated EGFRvIII-hFc, antibody 0.1 nM
T1 construct: extracellular domain; made in HEK293 cells, purified on protein A; also called immunogen A; hFc-tagged EGFRvIII protein; not shown: human IgG Fc fragment (hFc) of the pCpC vector
Entries and their measured OD450 nm follow.
attribute measured: OD450 nm

binder	numeric readout
Murine anti-43H6 (antibody, V domains shown, murine hybridoma antibody; also called 43H6A1) VH: INAEYAGGPGLVKPSQSLSLTCTVTDYSITSDYAWNWIRQFPGNKLEWMGYISYSGNTNYNPSLKSRISITRDTSKNQFFLQLNSVTTEDTATYYCARLGRGFAYWGQGTLVTVSA VL: DILMTQSPSSMSVSLGDTVSITCHASQDINSNIGWLQQKPGTSFKGLIYHGRNLEDGVPSRFSGSGSGEDYSLTISSLESEDFADYYCVQYAHFPPTFGAGTKLELK	1.39
Murine anti-56F10 (antibody, V domains shown, murine hybridoma antibody; also called 56F10G2) VH: EVQLQQSGAELVKPGASVKLSCTASGFNIKDFYMHWVKQRTEQGLEWIGRIDPEDGETKYAPKFQGKATITADTSSNTAYLQLSSLTSEDTAVYYCGCRTGGFAYWGQGTLVTVSA VL: QIVLTQSPAIMSASPGEKVTMTCSASSSVSYLYWYQQKPGSSPSLLIYDTSNLASGVPVRFSGSGSGTSYSLTISRMEAEDAATYYCQQWSRNPWTFGGGTKLEIK	0.18
Murine anti-49G12 (antibody, V domains shown, murine hybridoma antibody; also called 49G12G5) VH: EVQLLQSGAELVKPGASVKLSCTASGFNIKDYYMHWVKQRTEQGLEWIGRIDPEDGETKYAPKFQGKATMTADTSSNTAYLQLSSLTSEDTAVYYCASSAYYGRNYWGQGTTLTVSS VL: QIVLTQSPAIMSASPGEKVTLTCSASSSLSSSYLYWYQQKPGSSPKLWIYSTSNLASGVPARFSGSGSGTSYSLTISSMEAEDAASYFCHQWSSYPYTFGGGTKLEIK	0.64
Murine anti-53D8 (antibody, V domains shown, murine hybridoma antibody; also called 53D8H4) VH: QVQLQQSGAELARPGASVKMSCKASGYTFTSYTMHWVKQRPGQGLEWIGYINPSSGYTKYNQIFKDKATLTADKSSSTAYMQLSSLTSEDSAVYYCTRGGGRGFAYWGQGTLVTVSA VL: DILMTQSPSSMSVSLGDTVSITCHASQDINSNIGWLQQKPGKSFKGLIYHGTNLEDGVPSRFSGSGSGADYSLTISSLESEDFADYYCVQYAQFPFTFGSGTKLEIK	0.64
Murine anti-51G7 (antibody, V domains shown, murine hybridoma antibody; also called 51G7C2) VH: EVQLQQSGAELVKPGASVKLSCTASGFNIKDFYIHWVKQRTEQGLEWIGRIDPEDGETKYAPKFQDKATIIADTSSNTAYLQLSSLTSEDTAVYYCASSSYYGNNYWGQGTTLTVSS VL: QIVLTQSPAIMSASPGEKVTLTCSASSSVSSNYLYWYQQKPGSSPKLWIYSTSNLASGVPARFSGSGSGTSYSLTISSMEAEDAASYFCHQWSSFPYTFGGGTKLEIK	0.46
